B1: HDAC6 (parent)
chain: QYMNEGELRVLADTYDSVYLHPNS

Variants of: B1
assay_notes: protein stability index of a GFP-peptide fusion (GPS, HEK-293T) (PSI 1-6); higher = more stable;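 also: lentivirally expressed fusions sorted by FACS into six bins by GFP to DsRed ratio, PSI derived from sequencing read proportions per bin multiplied by bin number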
condition: c terminus: a fixed tail appended

| seq_text | protein stability index |
| --- | --- |
| QYMNEGDLRVLADTYDSVYLHPNS [E7D] | 2.04 |
| QYMNEGELRVTADTYDSVYLHPNS [L11T] | 2 |
| QYMNEGELRVLADTYDSVGLHPNS [Y19G] | 3.72 |
| QYMEEGELRVLADTYDSVYLHPNS [N4E] | 3.02 |
| QYMNYGELRVLADTYDSVYLHPNS [E5Y] | 2.03 |
| QYMNTGELRVLADTYDSVYLHPNS [E5T] | 2.02 |
| QYMNEGELRLLADTYDSVYLHPNS [V10L] | 1.66 |
| QYMNEGELRVLADTYDSVYLRPNS [H21R] | 1.76 |
| QYMNEGELRVLADTYDSVYLPPNS [H21P] | 1.85 |
| QYMNEGEERVLADTYDSVYLHPNS [L8E] | 3.51 |
